Quick reference: Kd of the listed items.
molecular target: KRas G12D (Homo sapiens (Human), UniProt P01116, G12D); assay: KRas G12D Surface Plasmon Resonance (SPR) Binding Assay; conditions: Biacore T200, immobilized biotinylated KRAS protein, 1:1 binding model
Sequence (P01116-2 other isoform, or with tags, fused parts or gaps G12D): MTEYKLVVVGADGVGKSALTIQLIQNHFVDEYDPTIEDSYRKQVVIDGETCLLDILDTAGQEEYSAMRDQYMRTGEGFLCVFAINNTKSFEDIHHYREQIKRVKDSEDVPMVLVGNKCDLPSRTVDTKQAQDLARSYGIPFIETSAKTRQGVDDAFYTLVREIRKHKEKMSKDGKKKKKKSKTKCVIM
Numeric only. Scale: nM

Check out these entries, answers already filled in.
Query string: What measured Kd goes with Fc1c(-c2cncc3cccc(Cl)c23)ncc2c(N3C[C@H]4CC[C@@H](C3)N4)nc(OCC34CCCN3CCC4)nc12 [Example 33, bis(2,2,2-trifluoroacetate)] ?
Result string: 71.7

Query string: Let us now turn to Oc1cc(-c2ncc3c(N4C[C@H]5CC[C@@H](C4)N5)nc(OCCCN4C[C@@H]5C[C@H]4CO5)nc3c2F)c2ccccc2c1 [Example 24]
Result string: 5

We next turn to a different molecule, shown below.
Query string: What measured Kd goes with Cn1ccnc1CCOc1nc(N2C[C@H]3CC[C@@H](C2)N3)c2cnc(-c3cc(O)cc4ccccc34)c(F)c2n1 [Example 3] ?
Result string: 8.3

* * *

Quick reference: log10(IC50) of the listed items.
biological target: KRas G12D (Homo sapiens (Human), UniProt P01116, G12D); assay: KRas G12D Binding Assay (TR-FRET displacement of Cy5 labelled tracer); details: GDP-loaded KRAS G12D (amino acids 1:169), 60 minute incubation at 22° C.
Sequence (P01116 other isoform, or with tags, fused parts or gaps G12D): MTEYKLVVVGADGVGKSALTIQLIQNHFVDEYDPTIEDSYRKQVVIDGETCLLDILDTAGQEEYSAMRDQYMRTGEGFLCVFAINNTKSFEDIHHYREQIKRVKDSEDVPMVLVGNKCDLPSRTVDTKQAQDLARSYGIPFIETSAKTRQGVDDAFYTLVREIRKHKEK
Counter-ions that a name gives are not always drawn.
The common logarithm of IC50 in nM is what is listed.

Check out these entries, answers already filled in.
Query string: What measured log10(IC50) goes with Fc1c(-c2ccccc2OC(F)(F)F)ncc2c(N3C[C@H]4CC[C@@H](C3)N4)nc(OCC34CCCN3CCC4)nc12 [Example 229, bis-hydrochloride] ?
Result string: 2.08

Query string: Let us now turn to CN1C[C@H](F)C[C@H]1COc1nc(N2C[C@H]3CC[C@@H](C2)N3)c2cnc(-c3cccc4cccc(Cl)c34)c(F)c2n1
Result string: 2.24

---
Query string: What measured log10(IC50) goes with Fc1c(-c2cccc3c2CC2CC32)ncc2c(N3CC4CCC(C3)N4)nc(OC[C@@]34CCCN3C[C@H](F)C4)nc12 (stereo partly shown) ?
Result string: 1.30

Query string: Let us now turn to CN1CCC[C@H]1COc1nc(N2C[C@H]3CC[C@@H](C2)N3)c2cnc(-c3cccc4c3CCCC4)c(F)c2n1
Result string: 2.42

* * *

molecular target: KRas G12D (Homo sapiens (Human), UniProt P01116, G12D); experiment: KRas G12D Binding Assay (TR-FRET displacement of Cy5 labelled tracer); details: GDP-loaded KRAS G12D (amino acids 1:169), 60 minute incubation at 22° C.
Counter-ions that a name gives are not always drawn.
readout.name: IC50 (nM)
Numeric only. Scale: nM

Check out these entries, answers already filled in.
Query string: What measured IC50 goes with FCCc1cccc2cccc(-c3ncc4c(N5C[C@H]6CC[C@@H](C5)N6)nc(OCC56CCCN5CCC6)nc4c3F)c12 [Example 248] ?
Result string: 3.2

Query string: Let us now turn to CN1CCC[C@H]1COc1nc(N2C[C@H]3CC[C@@H](C2)N3)c2cnc(-c3cc(O)cc4cccc(Cl)c34)c(F)c2n1 [Example 63]
Result string: 0.4

Query string: Let us now turn to Cn1cc([C@H]2CN3CCC[C@]3(COc3nc(N4CC5CCC(C4)N5)c4cnc(-c5cccc6cccc(Cl)c56)c(F)c4n3)C2)cn1 (stereo in doubt) [Example 220, tris-hydrochloride salt]
Result string: 8.7

Query string: Let us now turn to Oc1cc(-c2ncc3c(N4C[C@H]5CC[C@@H](C4)N5)nc(N4CC(O)C4)nc3c2F)c2ccccc2c1 [Example 37, bis(2,2,2-trifluoroacetate)]
Result string: 405

---
Query string: What measured IC50 goes with CN1CCC[C@H]1COc1nc(N2C[C@H]3CC[C@@H](C2)N3)c2cnc(-c3cccc4c3C(C)(C)CC4)c(F)c2n1 [Example 161, bis(2,2,2-trifluoroacetate)] ?
Result string: 273

Query string: Let us now turn to O[C@H]1CN2CCC[C@@]2(COc2nc(N3CC4CCC(C3)N4)c3cnc(-c4cccc5cccc(Cl)c45)c(F)c3n2)C1 [Example 223]
Result string: 7.1

* * *

Target: KRas G12D (Homo sapiens (Human), UniProt P01116, G12D)
Assay: KRas G12D Binding Assay (TR-FRET displacement of Cy5 labelled tracer)
Conditions: GDP-loaded KRAS G12D (amino acids 1:169), 60 minute incubation at 22° C.
Method: After a 60 minute incubation at 22° C., the reaction was measured using a PerkinElmer EnVision multimode plate reader via TR-FRET dual wavelength detection, and the percent of control (POC) calculated using a ratiometric emission factor. […] The POC values were fit to a 4-parameter logistic curve and the IC50 value was determined as the concentration where the curve crosses 50 POC. ND stands for “not determined.”
pIC50: −log10 of the molar value.
// No strictly below 7 in pIC50; Yes otherwise

For orientation, consider the following solved cases.
Query string: State whether the measured pIC50 reaches 7, counting equality as reaching it, for Fc1c(-c2cccc3cccc(Cl)c23)ncc2c(N3C[C@H]4CC[C@@H](C3)N4)nc(OCC3COC3)nc12
Result string: No

Query string: Let us now turn to Oc1c(F)cc(F)c(-c2ncc3c(N4C[C@H]5CC[C@@H](C4)N5)nc(OCC45CCCN4CCC5)nc3c2F)c1F
Result string: No

Query string: Let us now turn to Fc1c(-c2cccc3cccc(Cl)c23)ncc2c(N3C[C@H]4CC[C@@H](C3)N4)nc(OC[C@H]3CCCO3)nc12
Result string: No

// next entry
Query string: State whether the measured pIC50 reaches 7, counting equality as reaching it, for CC(C)Cc1ccccc1-c1ncc2c(N3CC4CCC(C3)N4)nc(OC[C@@]34CCCN3C[C@H](F)C4)nc2c1F (stereo in doubt)
Result string: No

* * *

Quick reference: IC50 of the listed items.
molecular target: KRas G12D (Homo sapiens (Human), UniProt P01116, G12D); experiment: KRas G12D Binding Assay (TR-FRET displacement of Cy5 labelled tracer); conditions: GDP-loaded KRAS G12D (amino acids 1:169), 60 minute incubation at 22° C.
Numeric only. Scale: µM

Check out these entries, answers already filled in.
Query string: What measured IC50 goes with OCCc1ccccc1-c1ncc2c(N3C[C@H]4CC[C@@H](C3)N4)nc(OCC34CCCN3CCC4)nc2c1F ?
Result string: 2.54

Query string: Let us now turn to OCC(O)CCOc1nc(N2C[C@H]3CC[C@@H](C2)N3)c2cnc(-c3cccc4cccc(Cl)c34)c(F)c2n1 (stereo partly drawn)
Result string: 7.29

We next turn to a different molecule, shown below.
Query string: What measured IC50 goes with CO[C@H]1CN2CCC[C@]2(COc2nc(N3CC4CCC(C3)N4)c3cnc(-c4cc(O)cc5cccc(F)c45)c(F)c3n2)C1 (stereo in doubt) ?
Result string: 0.0009

* * *

Quick reference: pIC50 of the listed items.
biological target: KRas G12D (Homo sapiens (Human), UniProt P01116, G12D); experiment: KRas G12D Binding Assay (TR-FRET displacement of Cy5 labelled tracer); conditions: GDP-loaded KRAS G12D (amino acids 1:169), 60 minute incubation at 22° C.
Note: pIC50 values are expressed as the negative base-10 logarithm of concentration in M.

Check out these entries, answers already filled in.
Query string: What measured pIC50 goes with CC(C)c1ncccc1-c1ncc2c(N3C[C@H]4CC[C@@H](C3)N4)nc(OC[C@@]34CCCN3C[C@H](F)C4)nc2c1F ?
Result string: 5.11

Query string: Let us now turn to CN1CCC[C@H]1COc1nc(N2CC3CCC(C2)N3)c2cnc(-c3c(Cl)c(O)cc4ccccc34)c(F)c2n1
Result string: 8.66

Query string: Let us now turn to CO[C@H](C)COc1nc(N2C[C@H]3CC[C@@H](C2)N3)c2cnc(-c3cccc4cccc(Cl)c34)c(F)c2n1
Result string: 5.09

Query string: Let us now turn to O=C(CCl)N1CCC(Oc2nc(N3C[C@H]4CC[C@@H](C3)N4)c3cnc(-c4cccc5cccc(Cl)c45)c(F)c3n2)CC1 [Example 163, bis(2,2,2-trifluoroacetate)]
Result string: 5.26

Query string: Let us now turn to CN(C)C(=O)NC[C@H]1CC[C@@]2(COc3nc(N4CC5CCC(C4)N5)c4cnc(-c5cccc6cccc(Cl)c56)c(F)c4n3)CCCN12
Result string: 7.75

---
Query string: What measured pIC50 goes with CCc1cccc2cc(O)cc(-c3ncc4c(N5CC6CCC(C5)N6)nc(OC[C@]56CCCN5[C@@H](COC(=O)N(C)C)CC6)nc4c3F)c12 ?
Result string: 9.15

* * *

Quick reference: IC50 of the listed items.
target: KRas G12D (Homo sapiens (Human), UniProt P01116, G12D); test: KRas G12D Binding Assay (TR-FRET displacement of Cy5 labelled tracer); settings: GDP-loaded KRAS G12D (amino acids 1:169), 60 minute incubation at 22° C.
Numeric only. Scale: µM

Query string: Form field: IC50 recorded for O=C1CCC2(COc3nc(N4CC5CCC(C4)N5)c4cnc(-c5cc(O)cc6ccccc56)c(F)c4n3)CCCN12 (stereo not shown) with KRas G12D (Homo sapiens (Human), UniProt P01116, G12D) (enter value)
Result string: 0.000751

Query string: Let us now turn to CCC1(N)CN(c2nc(N3C[C@H]4CC[C@@H](C3)N4)c3cnc(-c4cc(O)cc5ccccc45)c(F)c3n2)C1
Result string: 0.0099

Query string: Let us now turn to CC(C)c1ccc(O)cc1-c1ncc2c(N3CC4CCC(C3)N4)nc(OC[C@@]34CCCN3C[C@H](F)C4)nc2c1F (stereo in doubt)
Result string: 0.0027

---
Query string: Form field: IC50 recorded for CO[C@@H]1C[C@@H](COc2nc(N3C[C@H]4CC[C@@H](C3)N4)c3cnc(-c4cccc5cccc(Cl)c45)c(F)c3n2)N(C)C1 with KRas G12D (Homo sapiens (Human), UniProt P01116, G12D) (enter value)
Result string: 0.135

Query string: Let us now turn to Fc1c(-c2cccc3cccc(Cl)c23)ncc2c(N3C[C@H]4CC[C@@H](C3)N4)nc(OC[C@@H]3CCCO3)nc12
Result string: 5.15

Query string: Let us now turn to CC(C)(O)c1ccccc1-c1ncc2c(N3CC4CCC(C3)N4)nc(OC[C@@]34CCCN3C[C@H](F)C4)nc2c1F (stereo in doubt)
Result string: 8.02

Query string: Let us now turn to C[C@@H]1C[C@H]1c1ccccc1-c1ncc2c(N3C[C@H]4CC[C@@H](C3)N4)nc(OCC34CCCN3CCC4)nc2c1F
Result string: 0.59
